# Target Entity: T1, human TNFR2 on the surface of CHO-TNFR2 cells (human, UniProt P20333 23-461)
# T1 construct: whole, on cells
# T1 sequence (looked up): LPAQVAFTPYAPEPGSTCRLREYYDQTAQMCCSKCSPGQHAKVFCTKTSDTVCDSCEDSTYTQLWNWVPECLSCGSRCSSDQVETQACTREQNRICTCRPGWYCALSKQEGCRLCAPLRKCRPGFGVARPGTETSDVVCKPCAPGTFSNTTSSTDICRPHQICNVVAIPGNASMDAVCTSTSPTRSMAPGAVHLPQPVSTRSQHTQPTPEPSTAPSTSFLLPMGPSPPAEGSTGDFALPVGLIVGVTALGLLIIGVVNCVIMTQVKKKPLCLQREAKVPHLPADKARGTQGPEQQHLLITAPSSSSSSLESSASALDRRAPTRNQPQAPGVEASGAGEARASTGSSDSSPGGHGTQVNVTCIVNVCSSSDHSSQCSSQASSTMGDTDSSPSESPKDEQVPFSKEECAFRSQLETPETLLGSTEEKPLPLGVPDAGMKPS
# Test Details: flow cytometry on CHO-TNFR2 cells; EC50 against 001-WT
Measurement Label: % Relative activity (WT antibody/test antibody) (%)

binder="001-Hu1 (antibody, V domains shown, Humanized form of #001; also called VH1 + VL1) VH: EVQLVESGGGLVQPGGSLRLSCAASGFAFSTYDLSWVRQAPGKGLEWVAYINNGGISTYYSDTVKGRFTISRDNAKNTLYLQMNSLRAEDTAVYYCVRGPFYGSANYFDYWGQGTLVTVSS VL: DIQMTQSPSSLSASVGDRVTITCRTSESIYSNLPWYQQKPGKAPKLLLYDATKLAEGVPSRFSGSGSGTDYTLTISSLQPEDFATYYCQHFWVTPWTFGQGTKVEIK" endpoint_result=78
binder="001-Hu2 (antibody, V domains shown, Humanized form of #001; also called VH2 + VL2) VH: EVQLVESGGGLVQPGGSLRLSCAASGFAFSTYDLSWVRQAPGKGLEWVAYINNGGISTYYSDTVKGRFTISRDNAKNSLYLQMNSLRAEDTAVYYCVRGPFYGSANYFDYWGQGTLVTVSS VL: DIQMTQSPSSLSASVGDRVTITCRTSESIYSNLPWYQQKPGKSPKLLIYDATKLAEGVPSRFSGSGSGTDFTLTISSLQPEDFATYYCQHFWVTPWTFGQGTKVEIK" endpoint_result=48
binder="001-Hu5 (antibody, V domains shown, Humanized form of #001; also called VH1 + VL4) VH: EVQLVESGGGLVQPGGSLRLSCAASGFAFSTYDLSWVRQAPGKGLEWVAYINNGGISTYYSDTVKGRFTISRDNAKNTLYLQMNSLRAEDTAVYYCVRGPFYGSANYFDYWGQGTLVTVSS VL: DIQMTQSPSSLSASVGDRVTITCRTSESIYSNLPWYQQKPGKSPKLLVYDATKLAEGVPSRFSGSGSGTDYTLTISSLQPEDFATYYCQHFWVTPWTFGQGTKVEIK" endpoint_result=123
